The measured values listed here are drawn from paper PMC11362645.

Assay: In vitro MTT cytotoxicity assay on MDBK cells
Format: cell-based, bovine
Conditions: bovine, MDBK cells (NBL-1 strain)
Field: viability at 24 h, 1 µM. Provide a value for each of the compounds that follow.
Answers are plain numbers, in %.

O=c1c(O[C@@H]2O[C@@H](CO)[C@H](O)[C@H]2O)c(-c2ccc(O)c(O)c2)oc2cc(O)cc(O)c12 [Component G-1, Avicularin]
96.9
C[C@H]1[C@H](C)CC[C@]2(CO)CC[C@]3(C)C(=CC[C@@H]4[C@@]5(C)CC[C@H](O)C(C)(C)[C@@H]5CC[C@]43C)[C@H]12 [Component B-1, Uvaol]
99.9
O=C1C[C@@H](c2ccc(O)cc2)Oc2cc(O)cc(O)c21 [Component D-1, Naringenin]
97.3

Batch lookup, viability at 24 h, 1 µM per entry.
1. O=c1c(O[C@@H]2O[C@H](CO)[C@@H](O)[C@H](O)[C@H]2O)c(-c2ccc(O)c(O)c2)oc2cc(O)cc(O)c12 [Component A-4, Isoquercitrin]
2. CC1(C)CC[C@]2(C)CC[C@]3(C)C(=CC[C@@H]4[C@@]5(C)CC[C@H](O)C(C)(C)[C@@H]5CC[C@]43C)[C@@H]2C1 [Component C-1, β-Amyrin]
3. COc1cc(C)cc(O)c1 [Component H-1, 3-Methoxy-5-methylphenol]

[A]
1: 110; 2: 82.6; 3: 109

----------
Experiment: In vitro MTT cytotoxicity assay on MDBK cells
Format: cell-based, bovine
Conditions: bovine, MDBK cells (NBL-1 strain)
Endpoint Name: viability at 24 h, 0.1 µM (%)
One number for each entry, in %.

COc1cc(C)cc(O)c1
106

Batch lookup, viability at 24 h, 0.1 µM per entry.
1. Cc1cc(O)cc(O)c1
2. OC[C@H]1O[C@@H](Oc2ccc(O)cc2)[C@H](O)[C@@H](O)[C@@H]1O

[A]
[92, 83.1]

----------
Field: Average cell viability (%). Provide a value for each of the compounds that follow.
Tested on: Madin-Darby bovine kidney (MDBK) cells
Test: In vitro MTT cytotoxicity assay on MDBK cells
Assay type: cell-based
Details: MDBK cells, 50 μM, 24 h, MTT
One number for each entry, in %.

Worked cases, Average cell viability (%) given:
C[C@@H]1O[C@@H](O[C@H]2[C@H](O)[C@@H](O)[C@H](OC[C@H]3O[C@@H](OC(=O)[C@]45CCC(C)(C)C[C@H]4C4=CC[C@@H]6[C@@]7(C)CC[C@H](O[C@@H]8OC[C@H](O)[C@H](O)[C@H]8O[C@@H]8O[C@H](CO)[C@@H](O)[C@H](O)[C@H]8O)[C@@](C)(CO)[C@@H]7CC[C@@]6(C)[C@]4(C)CC5)[C@H](O)[C@@H](O)[C@@H]3O)O[C@@H]2CO)[C@H](O)[C@H](O)[C@H]1O [Component I-1, Cauloside G]
97.0
COc1cc(CCc2ccccc2O)cc(OC)c1O [Component A-2]
103.4
COC1OC(CO)C(O)C(O)C1O (stereo not drawn) [Component F-2, β-Methylglucoside]
102.0

[Q] State recorded Average cell viability (%) with Madin-Darby bovine kidney (MDBK) cells, entry Oc1cc(O)c2c(c1)OC(c1ccc(O)c(O)c1)C(O)C2 (centres unmarked) [E−2, Catechin] , no comment.
[A] 104.9
